B1: library; a variant is named by its letters at N, in order (parent)
chain: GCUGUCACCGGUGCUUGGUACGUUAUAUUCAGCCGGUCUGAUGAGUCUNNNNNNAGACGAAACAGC

# Variants of: B1
# METHOD_SUMMARY: normalized RNA/DNA level with ligand (relative to sTRSVctl = 100) (log10 (% of sTRSVctl)); HEK293T overexpressing SLC46A1; ligand concentration (+) RNA-Seq: 6 mM; higher = less ribozyme self-cleavage, higher mRNA level
# SETTINGS: with (6R,S)-folinic acid; ligand present: yes
ENDPOINT_NAME: normalized RNA/DNA level with ligand (log10)

GCUGUCACCGGUGCUUGGUACGUUAUAUUCAGCCGGUCUGAUGAGUCUUCCUGUAGACGAAACAGC :: 2.05
GCUGUCACCGGUGCUUGGUACGUUAUAUUCAGCCGGUCUGAUGAGUCUCCCGUUAGACGAAACAGC :: 2.04
GCUGUCACCGGUGCUUGGUACGUUAUAUUCAGCCGGUCUGAUGAGUCUUGGACGAGACGAAACAGC :: 1.97
GCUGUCACCGGUGCUUGGUACGUUAUAUUCAGCCGGUCUGAUGAGUCUGGCAUAAGACGAAACAGC :: 2.01
GCUGUCACCGGUGCUUGGUACGUUAUAUUCAGCCGGUCUGAUGAGUCUCCAUCUAGACGAAACAGC :: 2.07
GCUGUCACCGGUGCUUGGUACGUUAUAUUCAGCCGGUCUGAUGAGUCUGAUUUCAGACGAAACAGC :: 2
GCUGUCACCGGUGCUUGGUACGUUAUAUUCAGCCGGUCUGAUGAGUCUCCCCAGAGACGAAACAGC :: 2.04
GCUGUCACCGGUGCUUGGUACGUUAUAUUCAGCCGGUCUGAUGAGUCUGGCUACAGACGAAACAGC :: 2.05
GCUGUCACCGGUGCUUGGUACGUUAUAUUCAGCCGGUCUGAUGAGUCUAAAUUAAGACGAAACAGC :: 1.99
GCUGUCACCGGUGCUUGGUACGUUAUAUUCAGCCGGUCUGAUGAGUCUCUGGCGAGACGAAACAGC :: 2.03
GCUGUCACCGGUGCUUGGUACGUUAUAUUCAGCCGGUCUGAUGAGUCUCAUACCAGACGAAACAGC :: 2.03
GCUGUCACCGGUGCUUGGUACGUUAUAUUCAGCCGGUCUGAUGAGUCUCAGACCAGACGAAACAGC :: 1.99
GCUGUCACCGGUGCUUGGUACGUUAUAUUCAGCCGGUCUGAUGAGUCUAAACGCAGACGAAACAGC :: 2.01
GCUGUCACCGGUGCUUGGUACGUUAUAUUCAGCCGGUCUGAUGAGUCUACGUAAAGACGAAACAGC :: 2.01
GCUGUCACCGGUGCUUGGUACGUUAUAUUCAGCCGGUCUGAUGAGUCUAGCACAAGACGAAACAGC :: 2
GCUGUCACCGGUGCUUGGUACGUUAUAUUCAGCCGGUCUGAUGAGUCUUUUCAAAGACGAAACAGC :: 2.01
GCUGUCACCGGUGCUUGGUACGUUAUAUUCAGCCGGUCUGAUGAGUCUGAUGGGAGACGAAACAGC :: 2.04
GCUGUCACCGGUGCUUGGUACGUUAUAUUCAGCCGGUCUGAUGAGUCUAAUAAUAGACGAAACAGC :: 2
GCUGUCACCGGUGCUUGGUACGUUAUAUUCAGCCGGUCUGAUGAGUCUUUGAUAAGACGAAACAGC :: 2.03
GCUGUCACCGGUGCUUGGUACGUUAUAUUCAGCCGGUCUGAUGAGUCUGAUUUAAGACGAAACAGC :: 2.03
GCUGUCACCGGUGCUUGGUACGUUAUAUUCAGCCGGUCUGAUGAGUCUACCAAUAGACGAAACAGC :: 2.01
GCUGUCACCGGUGCUUGGUACGUUAUAUUCAGCCGGUCUGAUGAGUCUACCCCUAGACGAAACAGC :: 1.98
GCUGUCACCGGUGCUUGGUACGUUAUAUUCAGCCGGUCUGAUGAGUCUCAUAAGAGACGAAACAGC :: 2.03
GCUGUCACCGGUGCUUGGUACGUUAUAUUCAGCCGGUCUGAUGAGUCUGAACUAAGACGAAACAGC :: 2
GCUGUCACCGGUGCUUGGUACGUUAUAUUCAGCCGGUCUGAUGAGUCUCUCCUUAGACGAAACAGC :: 2
GCUGUCACCGGUGCUUGGUACGUUAUAUUCAGCCGGUCUGAUGAGUCUUUGUUCAGACGAAACAGC :: 2.08
GCUGUCACCGGUGCUUGGUACGUUAUAUUCAGCCGGUCUGAUGAGUCUCGCCCCAGACGAAACAGC :: 2.04
GCUGUCACCGGUGCUUGGUACGUUAUAUUCAGCCGGUCUGAUGAGUCUCUUGAUAGACGAAACAGC :: 2.01
GCUGUCACCGGUGCUUGGUACGUUAUAUUCAGCCGGUCUGAUGAGUCUGUGGCCAGACGAAACAGC :: 2.05
GCUGUCACCGGUGCUUGGUACGUUAUAUUCAGCCGGUCUGAUGAGUCUCGGCUUAGACGAAACAGC :: 2.02
GCUGUCACCGGUGCUUGGUACGUUAUAUUCAGCCGGUCUGAUGAGUCUGUCACGAGACGAAACAGC :: 2.04
GCUGUCACCGGUGCUUGGUACGUUAUAUUCAGCCGGUCUGAUGAGUCUGCACGCAGACGAAACAGC :: 2.02
GCUGUCACCGGUGCUUGGUACGUUAUAUUCAGCCGGUCUGAUGAGUCUGCGAACAGACGAAACAGC :: 2.04
GCUGUCACCGGUGCUUGGUACGUUAUAUUCAGCCGGUCUGAUGAGUCUCAGCGAAGACGAAACAGC :: 2
GCUGUCACCGGUGCUUGGUACGUUAUAUUCAGCCGGUCUGAUGAGUCUACGUUAAGACGAAACAGC :: 2.02
GCUGUCACCGGUGCUUGGUACGUUAUAUUCAGCCGGUCUGAUGAGUCUACACAAAGACGAAACAGC :: 1.98
GCUGUCACCGGUGCUUGGUACGUUAUAUUCAGCCGGUCUGAUGAGUCUCAUGGGAGACGAAACAGC :: 2.01
GCUGUCACCGGUGCUUGGUACGUUAUAUUCAGCCGGUCUGAUGAGUCUCUAUUGAGACGAAACAGC :: 2.01
GCUGUCACCGGUGCUUGGUACGUUAUAUUCAGCCGGUCUGAUGAGUCUGAAAAGAGACGAAACAGC :: 2
GCUGUCACCGGUGCUUGGUACGUUAUAUUCAGCCGGUCUGAUGAGUCUCAGCGUAGACGAAACAGC :: 1.99
GCUGUCACCGGUGCUUGGUACGUUAUAUUCAGCCGGUCUGAUGAGUCUAUUUGCAGACGAAACAGC :: 1.99
GCUGUCACCGGUGCUUGGUACGUUAUAUUCAGCCGGUCUGAUGAGUCUGAUAAAAGACGAAACAGC :: 2
GCUGUCACCGGUGCUUGGUACGUUAUAUUCAGCCGGUCUGAUGAGUCUGGUGCAAGACGAAACAGC :: 2.04
GCUGUCACCGGUGCUUGGUACGUUAUAUUCAGCCGGUCUGAUGAGUCUUUCUUGAGACGAAACAGC :: 2.02
GCUGUCACCGGUGCUUGGUACGUUAUAUUCAGCCGGUCUGAUGAGUCUCAACGCAGACGAAACAGC :: 2.02
GCUGUCACCGGUGCUUGGUACGUUAUAUUCAGCCGGUCUGAUGAGUCUCCGGCGAGACGAAACAGC :: 2.05
GCUGUCACCGGUGCUUGGUACGUUAUAUUCAGCCGGUCUGAUGAGUCUUCCCCUAGACGAAACAGC :: 2.04
GCUGUCACCGGUGCUUGGUACGUUAUAUUCAGCCGGUCUGAUGAGUCUGAAGGUAGACGAAACAGC :: 2.02
GCUGUCACCGGUGCUUGGUACGUUAUAUUCAGCCGGUCUGAUGAGUCUGCUUGUAGACGAAACAGC :: 2.04
GCUGUCACCGGUGCUUGGUACGUUAUAUUCAGCCGGUCUGAUGAGUCUAUCUCUAGACGAAACAGC :: 2.02
GCUGUCACCGGUGCUUGGUACGUUAUAUUCAGCCGGUCUGAUGAGUCUAAUCACAGACGAAACAGC :: 2
GCUGUCACCGGUGCUUGGUACGUUAUAUUCAGCCGGUCUGAUGAGUCUCUUUAAAGACGAAACAGC :: 2
GCUGUCACCGGUGCUUGGUACGUUAUAUUCAGCCGGUCUGAUGAGUCUGGCGUUAGACGAAACAGC :: 2.06
GCUGUCACCGGUGCUUGGUACGUUAUAUUCAGCCGGUCUGAUGAGUCUGUAUCAAGACGAAACAGC :: 2.04
GCUGUCACCGGUGCUUGGUACGUUAUAUUCAGCCGGUCUGAUGAGUCUCACGUAAGACGAAACAGC :: 2.01
GCUGUCACCGGUGCUUGGUACGUUAUAUUCAGCCGGUCUGAUGAGUCUGCGGUAAGACGAAACAGC :: 2.01
GCUGUCACCGGUGCUUGGUACGUUAUAUUCAGCCGGUCUGAUGAGUCUUCAUUAAGACGAAACAGC :: 2.04
GCUGUCACCGGUGCUUGGUACGUUAUAUUCAGCCGGUCUGAUGAGUCUUUUGAAAGACGAAACAGC :: 1.98
GCUGUCACCGGUGCUUGGUACGUUAUAUUCAGCCGGUCUGAUGAGUCUGCUUCAAGACGAAACAGC :: 2.06
GCUGUCACCGGUGCUUGGUACGUUAUAUUCAGCCGGUCUGAUGAGUCUAUAACGAGACGAAACAGC :: 2.02
GCUGUCACCGGUGCUUGGUACGUUAUAUUCAGCCGGUCUGAUGAGUCUAUACACAGACGAAACAGC :: 2.04
GCUGUCACCGGUGCUUGGUACGUUAUAUUCAGCCGGUCUGAUGAGUCUCAUGAAAGACGAAACAGC :: 1.98
GCUGUCACCGGUGCUUGGUACGUUAUAUUCAGCCGGUCUGAUGAGUCUACUCAGAGACGAAACAGC :: 1.98
GCUGUCACCGGUGCUUGGUACGUUAUAUUCAGCCGGUCUGAUGAGUCUUUCGCAAGACGAAACAGC :: 2
GCUGUCACCGGUGCUUGGUACGUUAUAUUCAGCCGGUCUGAUGAGUCUCGUCUAAGACGAAACAGC :: 2.03
GCUGUCACCGGUGCUUGGUACGUUAUAUUCAGCCGGUCUGAUGAGUCUCGCAGGAGACGAAACAGC :: 2.03
GCUGUCACCGGUGCUUGGUACGUUAUAUUCAGCCGGUCUGAUGAGUCUGAGAGCAGACGAAACAGC :: 2.03
GCUGUCACCGGUGCUUGGUACGUUAUAUUCAGCCGGUCUGAUGAGUCUGUCCAAAGACGAAACAGC :: 2.01
GCUGUCACCGGUGCUUGGUACGUUAUAUUCAGCCGGUCUGAUGAGUCUCCCCAAAGACGAAACAGC :: 2
GCUGUCACCGGUGCUUGGUACGUUAUAUUCAGCCGGUCUGAUGAGUCUGAAAUUAGACGAAACAGC :: 2.05
GCUGUCACCGGUGCUUGGUACGUUAUAUUCAGCCGGUCUGAUGAGUCUGCGCAUAGACGAAACAGC :: 2
GCUGUCACCGGUGCUUGGUACGUUAUAUUCAGCCGGUCUGAUGAGUCUACCUCAAGACGAAACAGC :: 2.07
GCUGUCACCGGUGCUUGGUACGUUAUAUUCAGCCGGUCUGAUGAGUCUUGGUAUAGACGAAACAGC :: 1.99
GCUGUCACCGGUGCUUGGUACGUUAUAUUCAGCCGGUCUGAUGAGUCUCUGUACAGACGAAACAGC :: 2.01
GCUGUCACCGGUGCUUGGUACGUUAUAUUCAGCCGGUCUGAUGAGUCUAUGAACAGACGAAACAGC :: 1.97

Values compiled from the supplement of paper PMC6757056.
